System: Coptotermes formosanus
EXPERIMENT SUMMARY: Insect repellant activity against Coptotermes formosanus assessed as repellency threshold concentration measured up to 24 hr by multiple-step triage method
Format: functional
# MEC per record follows
I only need the number, in µg/g, no unit after it.

CC(C)[C@@H]1CC[C@@]2(C)C=CC(=O)C=C2C1 ... 25
CC1=CC(=O)C=C2C[C@H](C(C)C)CC[C@@]12C ... 25
C=C(C)[C@@H]1CCC2CC(=O)C[C@@H](C)[C@]2(C)C1 (some centres not stated) [1,10-DIHYDRONOOTKATONE] ... 1.56
CC(C)[C@@H]1CCC2=CC(=O)C[C@H](C)[C@@]2(C)C1 [4BETA,5BETA-1,10-DIHYDRONOOTKATONE] ... 3.25

Query C=C(C)[C@@H]1CCC2=CC(=O)C[C@@H](C)[C@]2(C)C1 yields MEC of 12.5

Query C=C(C)[C@@H]1CC[C@]2(C)C(=CC(=O)C[C@@H]2C)C1 yields MEC of 12.5

Query C=C(C)[C@@H]1CC[C@]2(C)CCC(=O)C=C2C1 yields MEC of 12.5

Query C=C(C)[C@@H]1CC[C@@]2(C)CCC(=O)C=C2C1 yields MEC of 6.25

Query CC(C)[C@@H]1CC[C@]2(C)C(=CC(=O)C[C@@H]2C)C1 yields MEC of 6.25

Query C=C(C)[C@@H]1CCC2C[C@@H](O)C[C@@H](C)[C@]2(C)C1 (some centres not stated) yields MEC of 50

Query C=C(C)[C@@H]1CC[C@@]2(C)C(C)=CC(=O)C=C2C1 yields MEC of 50

Query C=C(C)[C@@H]1CCC2=C[C@@H](O)C[C@@H](C)[C@]2(C)C1 yields MEC of 100

###

Tested on: Coptotermes formosanus
EXPERIMENT SUMMARY: Insect repellant activity against Coptotermes formosanus assessed as repellency threshold concentration measured up to 24 hr by multiple-step triage method
Type: functional
TEST READOUT: MEC (µg/g)
I only need the number, in µg/g, no unit after it.

CC(C)[C@@H]1CCC2CC(=O)C[C@@H](C)[C@]2(C)C1 (stereo not given in full) [TETRAHYDRONOOTKATONE] ... 1.56

Query CC(C)[C@@H]1CCC2=CC(=O)C[C@@H](C)[C@]2(C)C1 [11,12-DIHYDRONOOTKATONE] yields MEC of 6.25

Query CC(C)[C@@H]1CCC2CC3(C[C@@H](C)[C@]2(C)C1)OCCO3 (stereo not given in full) [TETRAHYDRONOOTKATONE KETAL] yields MEC of 1.56

Query C=C(C)[C@@H]1CCC2CC3(C[C@@H](C)[C@]2(C)C1)OCCO3 (stereo not given in full) [1,10-DIHYDRONOOTKATONE KETAL] yields MEC of 1.56

Query C=C(C)[C@@H]1CC[C@@]2(C)C=CC(=O)C=C2C1 yields MEC of 25

Data origin, for the record: ChEMBL document CHEMBL3045732
